target: FLK-1 receptor (Mus musculus); construct: expressed in transfected cells; host or cells: NIH3T3 C7#3; test: FLK-1 ELISA (kinase activity of the FLK-1 receptor in FLK-1/NIH3T3 cells, VEGF stimulated); assay type: cell-based
Sequence (P35918 20-1345): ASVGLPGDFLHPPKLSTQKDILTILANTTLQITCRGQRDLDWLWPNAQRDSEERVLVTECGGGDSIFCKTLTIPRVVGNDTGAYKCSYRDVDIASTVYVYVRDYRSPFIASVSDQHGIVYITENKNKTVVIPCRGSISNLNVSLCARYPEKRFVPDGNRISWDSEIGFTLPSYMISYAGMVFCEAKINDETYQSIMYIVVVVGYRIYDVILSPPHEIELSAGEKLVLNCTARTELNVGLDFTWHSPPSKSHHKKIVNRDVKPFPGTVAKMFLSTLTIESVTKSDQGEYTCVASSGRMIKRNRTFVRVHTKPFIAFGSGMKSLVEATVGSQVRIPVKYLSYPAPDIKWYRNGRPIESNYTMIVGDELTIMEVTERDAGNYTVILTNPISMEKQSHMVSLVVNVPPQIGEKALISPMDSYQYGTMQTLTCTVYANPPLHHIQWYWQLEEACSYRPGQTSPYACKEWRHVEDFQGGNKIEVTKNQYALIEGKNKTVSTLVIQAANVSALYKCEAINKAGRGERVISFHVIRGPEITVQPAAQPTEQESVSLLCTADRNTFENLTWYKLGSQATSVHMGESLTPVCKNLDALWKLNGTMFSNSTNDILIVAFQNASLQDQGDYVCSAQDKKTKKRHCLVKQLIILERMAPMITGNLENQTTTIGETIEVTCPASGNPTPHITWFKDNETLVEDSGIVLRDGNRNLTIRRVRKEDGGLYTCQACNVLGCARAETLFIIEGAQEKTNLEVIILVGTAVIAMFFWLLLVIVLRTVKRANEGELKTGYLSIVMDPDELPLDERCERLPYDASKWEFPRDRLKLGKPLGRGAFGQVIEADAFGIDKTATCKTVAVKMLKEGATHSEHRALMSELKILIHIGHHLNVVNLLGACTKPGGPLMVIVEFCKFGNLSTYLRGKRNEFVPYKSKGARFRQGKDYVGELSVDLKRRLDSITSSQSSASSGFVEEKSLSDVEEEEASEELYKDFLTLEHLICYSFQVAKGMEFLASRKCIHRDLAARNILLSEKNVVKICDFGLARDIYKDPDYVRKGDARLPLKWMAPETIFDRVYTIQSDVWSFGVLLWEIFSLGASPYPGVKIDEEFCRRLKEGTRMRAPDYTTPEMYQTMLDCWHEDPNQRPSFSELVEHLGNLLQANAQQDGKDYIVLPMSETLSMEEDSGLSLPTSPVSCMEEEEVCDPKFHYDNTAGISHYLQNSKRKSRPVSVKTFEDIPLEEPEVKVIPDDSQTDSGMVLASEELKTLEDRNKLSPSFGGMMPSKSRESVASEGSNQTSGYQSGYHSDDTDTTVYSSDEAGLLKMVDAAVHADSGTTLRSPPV

[
  {
    "compound": "COc1ccc(Br)c(C=C2C(=O)Nc3c(Br)cc(Br)cc32)c1O [10725/A03]",
    "units-label": "%",
    "Fik Kinase %Inhibition": 3.6
  },
  {
    "compound": "O=C1Nc2ccc(S(=O)(=O)Nc3ccc(C(F)(F)F)cc3)cc2C1=Cc1csc([N+](=O)[O-])c1 [10722/E09]",
    "units-label": "%",
    "Fik Kinase %Inhibition": 16.2
  },
  {
    "compound": "Cc1cc(C=C2C(=O)Nc3ccc(I)cc32)cc(C(C)(C)C)c1O [10726/B04]",
    "units-label": "%",
    "Fik Kinase %Inhibition": 16.8
  },
  {
    "compound": "COc1c(Br)cc(C=C2C(=O)Nc3c(Br)cc(Br)cc32)cc1C(C)(C)C [10732/A07]",
    "units-label": "%",
    "Fik Kinase %Inhibition": -19.8
  },
  {
    "compound": "CNS(=O)(=O)c1ccc2c(c1)C(=Cc1ccc(C)o1)C(=O)N2 [10725/D04]",
    "units-label": "%",
    "Fik Kinase %Inhibition": 3.6
  },
  {
    "compound": "Cc1c(Br)ccc2c1C(=Cc1ccccc1Br)C(=O)N2 [10723/C07]",
    "units-label": "%",
    "Fik Kinase %Inhibition": 20.9
  },
  {
    "compound": "COc1cc(C=C2C(=O)Nc3ccc(Br)c(C)c32)cc(OC)c1 [10728/C04]",
    "units-label": "%",
    "Fik Kinase %Inhibition": -0.0
  },
  {
    "compound": "COc1ccc2ccccc2c1C=C1C(=O)Nc2ccc(S(=O)(=O)Nc3ccc(C(F)(F)F)cc3)cc21 [10729/E02]",
    "units-label": "%",
    "Fik Kinase %Inhibition": 26.6
  },
  {
    "compound": "CNS(=O)(=O)c1ccc2c(c1)C(=Cc1coc3ccc(C(C)C)cc3c1=O)C(=O)N2 [10731/D05]",
    "units-label": "%",
    "Fik Kinase %Inhibition": 32.7
  },
  {
    "compound": "Cc1cc(C=C2C(=O)Nc3ccc(Br)c(C)c32)cc(C)c1OCc1ccccc1 [10733/C07]",
    "units-label": "%",
    "Fik Kinase %Inhibition": 1.2
  },
  {
    "compound": "CC(C)c1cc(C=C2C(=O)Nc3c(Br)cc(Br)cc32)cc(C(C)C)c1Oc1ccccc1 [10732/A04]",
    "units-label": "%",
    "Fik Kinase %Inhibition": -14.1
  },
  {
    "compound": "O=C1Nc2ccc(I)cc2C1=Cc1ccc(O)c(Br)c1 [10734/B09]",
    "units-label": "%",
    "Fik Kinase %Inhibition": -32.3
  },
  {
    "compound": "CCOc1cccc(C=C2C(=O)Nc3c(Br)cc(Br)cc32)c1O [10734/A02]",
    "units-label": "%",
    "Fik Kinase %Inhibition": 4.1
  },
  {
    "compound": "O=C1Nc2ccc(S(=O)(=O)N3CCOCC3)cc2C1=Cc1cccc([N+](=O)[O-])c1 [10719/F10]",
    "units-label": "%",
    "Fik Kinase %Inhibition": 10.4
  },
  {
    "compound": "CNS(=O)(=O)c1ccc2c(c1)C(=Cc1ccco1)C(=O)N2 [10718/D10]",
    "units-label": "%",
    "Fik Kinase %Inhibition": 15.0
  },
  {
    "compound": "COc1cc(Br)c(O)c(C=C2C(=O)Nc3ccc(Br)c(C)c32)c1 [10718/C03]",
    "units-label": "%",
    "Fik Kinase %Inhibition": -13.9
  },
  {
    "compound": "O=C1Nc2ccc(F)cc2C1=C1C(=O)Nc2ccc(S(=O)(=O)Nc3ccc(C(F)(F)F)cc3)cc21 [10726/E08]",
    "units-label": "%",
    "Fik Kinase %Inhibition": 4.1
  },
  {
    "compound": "COc1ccc(O)c(C=C2C(=O)Nc3ccc(I)cc32)c1 [10720/B10]",
    "units-label": "%",
    "Fik Kinase %Inhibition": -5.5
  }
]
